Target: T1, Angiopoietin-2 binding to Tie-2 (Homo sapiens, UniProt O15123)
T1 construct: purchased R&D Systems, Inc. BT623 (Angiopoietin-2, biotinylated); 313-TI-100 (Tie-2/Fc)
T1 sequence (O15123 19-496): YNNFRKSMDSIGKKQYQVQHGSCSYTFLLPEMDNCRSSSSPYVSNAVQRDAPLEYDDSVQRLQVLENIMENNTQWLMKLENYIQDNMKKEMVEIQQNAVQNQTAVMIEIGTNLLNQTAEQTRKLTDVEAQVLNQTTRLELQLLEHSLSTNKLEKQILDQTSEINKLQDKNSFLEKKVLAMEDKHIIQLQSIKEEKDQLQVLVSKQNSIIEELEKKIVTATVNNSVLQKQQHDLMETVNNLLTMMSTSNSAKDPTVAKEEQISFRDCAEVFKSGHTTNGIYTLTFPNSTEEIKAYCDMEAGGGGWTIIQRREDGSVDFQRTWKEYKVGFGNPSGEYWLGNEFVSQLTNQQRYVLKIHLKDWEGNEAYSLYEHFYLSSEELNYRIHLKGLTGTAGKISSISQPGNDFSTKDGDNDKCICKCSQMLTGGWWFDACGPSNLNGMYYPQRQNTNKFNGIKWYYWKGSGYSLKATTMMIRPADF
Assay: Competitive binding assay (modified ELISA): inhibition of Angiopoietin-2 binding to Tie-2
Conditions: potency, competitive binding of Angiopoietin-2 to Tie-2, purified mAb
Endpoint Label: EC50 (µg/mL)
The reply should contain only the number, in µg/mL.

// below: answered molecules
[[record]]
molecule = "mAb 5.88.3: fully human anti-Angiopoietin-2 monoclonal antibody, variable regions SEQ ID NO: 29-32 (antibody, listed as Homo Sapiens, V domains shown) VH: EVQMVESGGGLVQPGGSLRLSCAASGFTLRSYWMSWVRQAPGKGLEWVANIKEDGSEKYHVDSVKGRFTISRDNAENSLFLQMSSLRAEDTAVYYCARDMEASAGLFDYWGQGTLVTVSSA VL: EIVMTQSPATLSVSPGERAILSCRASQSISSNLAWYQQKPGQAPRLLIYGASTRATGIPARFSGSGSGTEFTLTISSLQSEDFAVYYCQQYNYWWTFGQGTKVEIKR"
endpoint_label = "EC50"
unit_text = "µg/mL"
measured_number = 0.1557

[[record]]
molecule = "mAb 5.28.1: fully human anti-Angiopoietin-2 monoclonal antibody, variable regions SEQ ID NO: 17-20 (antibody, listed as Homo sapiens, listed as Homo Sapiens, V domains shown) VH: EVQLVESGGIVVQPGGSLRLSCAASGFTFDDYTMHWVRQTPGKGLEWVSLISWDGGSTYYADSVKGRFTISRDNSKNSLYLQMNSLRTEDTALYYCAKDIDIAVAGTGFDHWGQGTLVTVSSA VL: EIVMTQSPATLSVSPGERATLSCRASQSVTSNLAWYQQKPGQAPRLLIYGALIRATGIPARFSGSGSGTEFTLTISSLQSEDFAVYYCQQYNNWPFTFGPGTKVDIKR"
endpoint_label = "EC50"
unit_text = "µg/mL"
measured_number = 2.698

[[record]]
molecule = "mAb 3.3.2: fully human anti-Angiopoietin-2 monoclonal antibody, variable regions SEQ ID NO: 1-4 (antibody, listed as Homo Sapiens, V domains shown) VH: EVQLVESGGGLVQPGGSLRLSCAVSGFTFSSYWMSWVRQAPGKGLEWVANIKQDGSEKYYVDSVKGRFTISRDNAKNSLYLQMNSLRAEDTAVYYCARDQGIAVAGPFDYWGQGTLVTVSSA VL: EIVMTQSPATLSVSPGERATLSCRASQTVSSDLAWYQQKPGQAPRLLIYGASIRATGIPARFSGSGSGTEFTLTISSLQSEDFAVYSCQQYYNWWTFGQGTKVEIKR"
endpoint_label = "EC50"
unit_text = "µg/mL"
measured_number = 0.1684


So for mAb 3.31.2: fully human anti-Angiopoietin-2 monoclonal antibody, variable regions SEQ ID NO: 9-12 (antibody, listed as Homo sapiens, V domains shown) VH: EVQLVESGGGLVQPGGSLRLSCAASGFTFSSYWMSWVRQAPGKGLEWVANIKQDGSDKYYVDSVKGRFTISRDNAKNSLYLRMNSLRAEDTAVFYCARDMGSGWFDYWGQGTLVTVSSA VL: EVVMTQSPATLSVSPGERATLSCRASQSVGSNLAWYQQKPGQAPRLLIYGASTRATGIPARFSGSGSGTEFTLTISSLQSEDFAVYCCQQYNHWWTFGQGTKVEIKR , the logged EC50 turned out to be 0.04169
